- STUDY TARGET: UniProt P30542
- Sequence (P30542 whole entry): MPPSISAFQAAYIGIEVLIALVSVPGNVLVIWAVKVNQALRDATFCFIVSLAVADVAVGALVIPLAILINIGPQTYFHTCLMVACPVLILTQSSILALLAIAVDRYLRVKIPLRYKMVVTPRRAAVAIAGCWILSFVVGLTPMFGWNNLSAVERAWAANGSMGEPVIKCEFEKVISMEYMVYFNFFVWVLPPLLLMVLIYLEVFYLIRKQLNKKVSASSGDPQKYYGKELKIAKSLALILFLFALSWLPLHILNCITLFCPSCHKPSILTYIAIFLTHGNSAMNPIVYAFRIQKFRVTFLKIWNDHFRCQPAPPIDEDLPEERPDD
- ASSAY REMARKS: GTPγS scintillation proximity assay, agonist testing
- CONDITION DETAILS: agonist activity; membrane extracts of CHO-K1 cells expressing recombinant human A1; read-out: A1AR EC50
VALUE TYPE: EC50 (nM)
Respond with the bare value in nM.

Would you please look over these solved cases?
• N#Cc1c(N)nc(SCC2CCCOC2)c(C#N)c1-c1ccc(OC2COC2)cc1 (centres unmarked) [Compound 9] = 884
• COCCOc1ccc(-c2c(C#N)c(C)nc(N)c2C#N)cc1 [Compound 39] = 862
• COCCOc1ccc(-c2c(C#N)c(N)nc(SCC3CCO3)c2C#N)cc1 (centres unmarked) [Compound 112] = 944
• CNC(=O)CSc1nc(N2CCC2)c(C#N)c(-c2ccc(OCCOC)cc2)c1C#N [Compound 78] = 643
• N#Cc1c(N)nc(SCc2cccnc2)c(C#N)c1-c1ccc(OCCO)cc1 [Compound 183] = 2
• COCCOc1ccc(-c2c(C#N)c(N)nc(SCC(C)O)c2C#N)cc1 (centres unmarked) [Compound 127] = 91
• N#Cc1c(N)nc(SCc2c[nH]c3ccccc23)c(C#N)c1-c1ccc(OCCO)cc1 [Compound 206] = 981
• N#Cc1c(N)nc(SCc2cccnc2)c(C#N)c1-c1ccc(O[C@H]2C[C@H](O)C2)cc1 [Compound 295] = 1.6

Value of measured EC50 for the entry CC(C)(O)COc1ccc(-c2c(C#N)c(SCc3cccnc3)nc(N3CCC3)c2C#N)cc1 [Compound 49] : 311

Value of measured EC50 for the entry COCCOc1ccc(-c2c(C#N)c(N)nc(SCc3cccnn3)c2C#N)cc1 [Compound 195] : 9.7

Value of measured EC50 for the entry N#Cc1c(N)nc(SCc2cnccn2)c(C#N)c1-c1ccc(OCCO)cc1 [Compound 172] : 12

Value of measured EC50 for the entry N#Cc1c(N)nc(SCC2COC2)c(C#N)c1-c1ccc(OCCO)cc1 [Compound 319] : 1.53
